Data credit: paper PMC7339578

- measurementNotes: Stability tests of analytes in rat plasma QC samples
- Type: in vitro ADME
- conditionDescription: rat plasma, nominal conc. 20 nM
observedProperty: Short-term stability at room temperature for 6 h, RE

Given CC(C)=CCC[C@](C)(O)[C@H]1CC[C@]2(C)[C@@H]1[C@H](O)C[C@@H]1[C@@]3(C)CC[C@H](O)C(C)(C)[C@@H]3[C@@H](O[C@@H]3O[C@H](CO)[C@@H](O)[C@H](O)[C@H]3O[C@@H]3O[C@@H](C)[C@H](O)[C@@H](O)[C@H]3O)C[C@]12C [Compound C5, Ginsenoside Rg2] , state its recorded Short-term stability at room temperature for 6 h, RE. 12.85%

Given O=C1C=CC[C@@H]2[C@H]3CCC[N+]4([O-])CCC[C@@H](CN12)[C@@H]34 (stereo partly drawn) , state its recorded Short-term stability at room temperature for 6 h, RE. 12.22%

Given CC(C)=CCC[C@](C)(O[C@@H]1O[C@H](CO[C@@H]2O[C@H](CO)[C@@H](O)[C@H](O)[C@H]2O)[C@@H](O)[C@H](O)[C@H]1O)[C@H]1CC[C@]2(C)[C@@H]1[C@H](O)C[C@@H]1[C@@]3(C)CC[C@H](O[C@@H]4O[C@H](CO)[C@@H](O)[C@H](O)[C@H]4O[C@@H]4O[C@H](CO)[C@@H](O)[C@H](O)[C@H]4O)C(C)(C)[C@@H]3CC[C@]12C [Compound D5, Ginsenoside Rb1] , state its recorded Short-term stability at room temperature for 6 h, RE. 9.00%

Given CC(C)=CCC[C@](C)(O[C@@H]1O[C@H](CO[C@@H]2OC[C@H](O)[C@H](O)[C@H]2O)[C@@H](O)[C@H](O)[C@H]1O)[C@H]1CC[C@]2(C)[C@@H]1[C@H](O)C[C@@H]1[C@@]3(C)CC[C@H](O[C@@H]4O[C@H](CO)[C@@H](O)[C@H](O)[C@H]4O[C@@H]4O[C@H](CO)[C@@H](O)[C@H](O)[C@H]4O)C(C)(C)[C@@H]3CC[C@]12C [Compound D4, Ginsenoside Rb2] , state its recorded Short-term stability at room temperature for 6 h, RE. 10.37%

Given CC(C)(O)[C@@H]1CC[C@](C)([C@H]2[C@@H](O)C[C@@]3(C)[C@@H]4C[C@H](O)[C@H]5C(C)(C)[C@@H](O[C@@H]6OC[C@@H](O)[C@H](O)[C@H]6O[C@@H]6O[C@H](CO)[C@@H](O)[C@H](O)[C@H]6O)CC[C@@]56C[C@@]46CC[C@]23C)O1 [Compound B3, Astragaloside III] , state its recorded Short-term stability at room temperature for 6 h, RE. -12.31%

Given CC(C)=CCC[C@](C)(O[C@@H]1O[C@H](CO)[C@@H](O)[C@H](O)[C@H]1O)[C@H]1CC[C@]2(C)[C@@H]1[C@H](O)C[C@@H]1[C@@]3(C)CC[C@H](O[C@@H]4O[C@H](CO)[C@@H](O)[C@H](O)[C@H]4O[C@@H]4O[C@H](CO)[C@@H](O)[C@H](O)[C@H]4O)C(C)(C)[C@@H]3CC[C@]12C [Compound D2, Ginsenoside Rd] , state its recorded Short-term stability at room temperature for 6 h, RE. -8.78%

* * *

- assayedSystem: UniProt P16662
- Sequence (P16662 24-529): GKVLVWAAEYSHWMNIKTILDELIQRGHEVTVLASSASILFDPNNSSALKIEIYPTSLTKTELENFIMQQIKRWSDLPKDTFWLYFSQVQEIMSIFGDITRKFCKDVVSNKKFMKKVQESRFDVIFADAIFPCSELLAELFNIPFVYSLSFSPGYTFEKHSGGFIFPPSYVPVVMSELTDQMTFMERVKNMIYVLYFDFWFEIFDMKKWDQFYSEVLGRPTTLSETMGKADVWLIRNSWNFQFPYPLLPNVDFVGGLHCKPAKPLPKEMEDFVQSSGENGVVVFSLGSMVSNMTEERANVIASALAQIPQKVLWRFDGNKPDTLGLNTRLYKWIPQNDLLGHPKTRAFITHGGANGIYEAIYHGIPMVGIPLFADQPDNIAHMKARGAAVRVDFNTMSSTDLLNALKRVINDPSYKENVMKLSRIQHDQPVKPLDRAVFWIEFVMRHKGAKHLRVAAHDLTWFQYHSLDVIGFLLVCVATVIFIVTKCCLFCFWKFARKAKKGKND
- measurementNotes: Inhibition of expressed UGT2B7 (probe 4-MU)
- Assay type: in vitro ADME
observedProperty: IC50

Given O=C1CCC[C@@H]2[C@H]3CCC[N+]4([O-])CCC[C@@H](CN12)[C@@H]34 (some centres unmarked) , state its recorded IC50. > 100 µM

Given "O=C1CCC[C@@H]2[C@H]3CCCN4CCC[C@@H](CN12)[C@@H]34" , state its recorded IC50. > 100 µM

* * *

- measurementNotes: Plasma pharmacokinetics in rats after a 30-min intravenous infusion of Kang-Ai injection
- Type: in vivo, Sprague–Dawley rats
- conditionDescription: rat, in vivo, iv
observedProperty: Cmax (nM)
Your answer is read as nM, so omit the unit and give the number.

Given O=C1CCCC2=C3CCC[N+]4([O-])CCC[C@@H](CN12)[C@@H]34 (stereo partly drawn) [Compound A7, Leontalbinine N-oxide] , state its recorded Cmax. 202

Given "O=c1cccc([C@@H]2C[C@H](CO)[C@H]3CCCCN3C2)[nH]1" , state its recorded Cmax. 421

Given "O=C1CCC[C@@H]2[C@H]3CCCN4CCC[C@@](O)(CN12)[C@@H]34" , state its recorded Cmax. 397

* * *

- assayedSystem: CYP2C8 (Homo sapiens)
- Sequence (P10632 whole entry): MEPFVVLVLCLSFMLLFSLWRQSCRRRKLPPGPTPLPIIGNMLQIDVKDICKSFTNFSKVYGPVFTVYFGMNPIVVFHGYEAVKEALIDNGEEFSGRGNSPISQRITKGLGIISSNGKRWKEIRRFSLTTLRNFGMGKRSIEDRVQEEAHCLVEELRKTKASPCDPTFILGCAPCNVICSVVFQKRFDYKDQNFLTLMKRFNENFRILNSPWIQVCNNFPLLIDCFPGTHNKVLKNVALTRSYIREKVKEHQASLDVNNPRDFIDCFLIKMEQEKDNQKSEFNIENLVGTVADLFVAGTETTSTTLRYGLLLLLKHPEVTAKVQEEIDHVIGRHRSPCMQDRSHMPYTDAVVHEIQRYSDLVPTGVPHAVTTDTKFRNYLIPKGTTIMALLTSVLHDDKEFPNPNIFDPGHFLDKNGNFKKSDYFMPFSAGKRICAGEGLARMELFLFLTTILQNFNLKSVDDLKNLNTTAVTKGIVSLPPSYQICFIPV
- measurementNotes: Inhibition of recombinant CYP2C8 (probe paclitaxel)
- Assay type: in vitro ADME
- conditionDescription: recombinant isozyme; mean ± SD of triplicate; unit not given (IC50 classes in μM); read-out: IC50 towards CYP2C8
Please respond with reported IC50 for every item in the list.

Given CC(C)=CCC[C@](C)(O)[C@H]1CC[C@]2(C)[C@@H]1[C@H](O)C[C@@H]1[C@@]3(C)CC[C@H](O)C(C)(C)[C@@H]3[C@@H](O[C@@H]3O[C@H](CO)[C@@H](O)[C@H](O)[C@H]3O[C@@H]3O[C@H](CO)[C@@H](O)[C@H](O)[C@H]3O)C[C@]12C [Compound C7, Ginsenoside Rf] , state its recorded IC50. > 100 µM

Given CC(C)=CCC[C@](C)(O[C@@H]1O[C@H](CO)[C@@H](O)[C@H](O)[C@H]1O)[C@H]1CC[C@]2(C)[C@@H]1[C@H](O)C[C@@H]1[C@@]3(C)CC[C@H](O)C(C)(C)[C@@H]3[C@@H](O[C@@H]3O[C@H](CO)[C@@H](O)[C@H](O)[C@H]3O)C[C@]12C [Compound C6, Ginsenoside Rg1] , state its recorded IC50. > 100 µM

* * *

- measurementNotes: Stability tests of analytes in rat plasma QC samples
- Assay type: in vitro ADME
- conditionDescription: rat plasma, nominal conc. 400 nM
- Procedure: […] The dilution integrity was investigated by analyzing six replicate samples with each analyte, and each analyte were diluted 10-fold with blank rat matrix. Furthermore, the diluted samples were analyzed using freshly prepared calibration curve to calculate RE and RSD, which should be no more than ± 15% as criterion.
observedProperty: At -80 °C for 48 h, Mean±SD (nM)
Your answer is read as nM, so omit the unit and give the number.

Given CC(C)(O)[C@@H]1CC[C@](C)([C@H]2[C@@H](O)C[C@@]3(C)[C@@H]4C[C@H](O)[C@H]5C(C)(C)[C@@H](O[C@@H]6OC[C@@H](O)[C@H](O)[C@H]6O[C@@H]6O[C@H](CO)[C@@H](O)[C@H](O)[C@H]6O)CC[C@@]56C[C@@]46CC[C@]23C)O1 [Compound B3, Astragaloside III] , state its recorded At -80 °C for 48 h, Mean±SD. 431.79

Given CC(C)(O)[C@@H]1CC[C@](C)([C@H]2[C@@H](O)C[C@@]3(C)[C@@H]4C[C@H](O[C@@H]5O[C@H](CO)[C@@H](O)[C@H](O)[C@H]5O)[C@H]5C(C)(C)[C@@H](O[C@@H]6OC[C@@H](O)[C@H](O)[C@H]6O)CC[C@@]56C[C@@]46CC[C@]23C)O1 [Compound B2, Astragaloside IV] , state its recorded At -80 °C for 48 h, Mean±SD. 378.90

Given "O=C1CCC[C@@H]2[C@H]3CCCN4CCC[C@@H](CN12)[C@@H]34" , state its recorded At -80 °C for 48 h, Mean±SD. 394.46

Given CC(C)=CCC[C@](C)(O[C@@H]1O[C@H](CO[C@@H]2OC[C@H](O)[C@H](O)[C@H]2O)[C@@H](O)[C@H](O)[C@H]1O)[C@H]1CC[C@]2(C)[C@@H]1[C@H](O)C[C@@H]1[C@@]3(C)CC[C@H](O[C@@H]4O[C@H](CO)[C@@H](O)[C@H](O)[C@H]4O[C@@H]4O[C@H](CO)[C@@H](O)[C@H](O)[C@H]4O)C(C)(C)[C@@H]3CC[C@]12C [Compound D4, Ginsenoside Rb2] , state its recorded At -80 °C for 48 h, Mean±SD. 423.10

Given CC(C)=CCC[C@](C)(O[C@@H]1O[C@H](CO[C@@H]2O[C@@H](CO)[C@H](O)[C@H]2O)[C@@H](O)[C@H](O)[C@H]1O)[C@H]1CC[C@]2(C)[C@@H]1[C@H](O)C[C@@H]1[C@@]3(C)CC[C@H](O[C@@H]4O[C@H](CO)[C@@H](O)[C@H](O)[C@H]4O[C@@H]4O[C@H](CO)[C@@H](O)[C@H](O)[C@H]4O)C(C)(C)[C@@H]3CC[C@]12C [Compound D3, Ginsenoside Rc] , state its recorded At -80 °C for 48 h, Mean±SD. 421.69

* * *

Please respond with reported IC50 for every item in the list.
- assayedSystem: UniProtKB P33261
- Sequence (P33261 whole entry): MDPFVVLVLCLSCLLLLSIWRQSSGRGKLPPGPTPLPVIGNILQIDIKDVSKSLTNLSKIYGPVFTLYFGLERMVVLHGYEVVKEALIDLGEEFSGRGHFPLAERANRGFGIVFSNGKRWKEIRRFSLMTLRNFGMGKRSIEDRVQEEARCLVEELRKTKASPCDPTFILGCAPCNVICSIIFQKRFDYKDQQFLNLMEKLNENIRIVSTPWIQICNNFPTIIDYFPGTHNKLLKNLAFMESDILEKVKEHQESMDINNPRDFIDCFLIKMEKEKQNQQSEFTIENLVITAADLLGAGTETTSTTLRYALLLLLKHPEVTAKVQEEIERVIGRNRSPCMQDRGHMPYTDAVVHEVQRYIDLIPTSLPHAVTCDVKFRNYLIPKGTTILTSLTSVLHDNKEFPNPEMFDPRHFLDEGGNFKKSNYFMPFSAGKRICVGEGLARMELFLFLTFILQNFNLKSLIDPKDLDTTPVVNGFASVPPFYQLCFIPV
- measurementNotes: Inhibition of recombinant CYP2C19 (probe mephenytoin)
- Assay type: in vitro ADME
- conditionDescription: recombinant isozyme; mean ± SD of triplicate; unit not given (IC50 classes in μM); read-out: IC50 towards CYP2C19

Given CC(C)=CCC[C@](C)(O[C@@H]1O[C@H](CO[C@@H]2O[C@H](CO)[C@@H](O)[C@H](O)[C@H]2O)[C@@H](O)[C@H](O)[C@H]1O)[C@H]1CC[C@]2(C)[C@@H]1[C@H](O)C[C@@H]1[C@@]3(C)CC[C@H](O[C@@H]4O[C@H](CO)[C@@H](O)[C@H](O)[C@H]4O[C@@H]4O[C@H](CO)[C@@H](O)[C@H](O)[C@H]4O)C(C)(C)[C@@H]3CC[C@]12C [Compound D5, Ginsenoside Rb1] , state its recorded IC50. > 100 µM

Given CC(C)=CCC[C@](C)(O[C@@H]1O[C@H](CO)[C@@H](O)[C@H](O)[C@H]1O)[C@H]1CC[C@]2(C)[C@@H]1[C@H](O)C[C@@H]1[C@@]3(C)CC[C@H](O)C(C)(C)[C@@H]3[C@@H](O[C@@H]3O[C@H](CO)[C@@H](O)[C@H](O)[C@H]3O)C[C@]12C [Compound C6, Ginsenoside Rg1] , state its recorded IC50. > 100 µM

Given CC(C)=CCC[C@](C)(O[C@@H]1O[C@H](CO[C@@H]2O[C@@H](CO)[C@H](O)[C@H]2O)[C@@H](O)[C@H](O)[C@H]1O)[C@H]1CC[C@]2(C)[C@@H]1[C@H](O)C[C@@H]1[C@@]3(C)CC[C@H](O[C@@H]4O[C@H](CO)[C@@H](O)[C@H](O)[C@H]4O[C@@H]4O[C@H](CO)[C@@H](O)[C@H](O)[C@H]4O)C(C)(C)[C@@H]3CC[C@]12C [Compound D3, Ginsenoside Rc] , state its recorded IC50. > 100 µM
